The reported measurements were obtained from paper PMC5458052.

# test_summary: in vivo
# recorded_conditions: female, Sprague-Dawley, rat, po, 50 mg/kg
observation_type: AUC(0-t) (ng·h/mL)
Respond with the bare value in ng·h/mL.

Find the recorded AUC(0-t) belonging to FC1CCN(CCOc2ccc(C3CCC4(CC3)OOC3(OO4)C4CC5CC(C4)CC3C5)cc2)CC1 (stereo not shown) and report it. 14800

----------
# test_summary: Rat PK iv 1 mg/kg (Chem Partners)
# recorded_conditions: in vivo
Entries and their clearance values follow.
Give the quantity in L/h/kg, number only.

compound: CS(=O)(=O)N1CCN(CCCOc2ccc(C3CCC4(CC3)OOC3(OO4)C4CC5CC(C4)CC3C5)cc2)CC1 (stereo not drawn) [Compound 7]
clearance / L/h/kg: 0.21

Query compound follows.
Bench note: what clearance did FC1CCN(CCOc2ccc(C3CCC4(CC3)OOC3(OO4)C4CC5CC(C4)CC3C5)cc2)CC1 (stereo not drawn) [Compound E209] show? 0.306
